B1: ZBED1 (parent)
chain: EQVFSLGDGVSGGFFGIRDSSFL

# Variants of: B1
# Assay: protein stability index of a GFP-peptide fusion (GPS, HEK-293T) (PSI 1-6); higher = more stable;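 further: lentivirally expressed fusions sorted by FACS into six bins by GFP to DsRed ratio, PSI derived from sequencing read proportions per bin multiplied by bin number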
# Study conditions: c terminus: native
Property measured: protein stability index
No unit in the answer, please; the number alone is enough.

Worked examples follow.
| Mutant | protein stability index |
| --- | --- |
| S20C | 1.96 |
| F14M | 3.74 |
| G13N | 3.58 |

Lab note: next variant to report on.
Query: // query protein stability index value for entry `V3S`
Reply: 3.63
